target: CYP2C19 (Homo sapiens, UniProt P33261); construct: purchased Sumitomo Chemical Co., Ltd; host or cells: yeast (microsomes); assay: Human CYP2C19 activity inhibition test (S-(+)-mephenytoin to 4'-hydroxymephenytoin); format: in vitro ADME; settings: human, pH 7.4, probe S-(+)-mephenytoin (to 4'-hydroxymephenytoin), test compound 10 μM; human CYP2C19 yeast expression system microsome; 4'-hydroxymephenytoin generated vs control; read-out: CYP2C19 residual activity (%)
Sequence (P33261 whole entry): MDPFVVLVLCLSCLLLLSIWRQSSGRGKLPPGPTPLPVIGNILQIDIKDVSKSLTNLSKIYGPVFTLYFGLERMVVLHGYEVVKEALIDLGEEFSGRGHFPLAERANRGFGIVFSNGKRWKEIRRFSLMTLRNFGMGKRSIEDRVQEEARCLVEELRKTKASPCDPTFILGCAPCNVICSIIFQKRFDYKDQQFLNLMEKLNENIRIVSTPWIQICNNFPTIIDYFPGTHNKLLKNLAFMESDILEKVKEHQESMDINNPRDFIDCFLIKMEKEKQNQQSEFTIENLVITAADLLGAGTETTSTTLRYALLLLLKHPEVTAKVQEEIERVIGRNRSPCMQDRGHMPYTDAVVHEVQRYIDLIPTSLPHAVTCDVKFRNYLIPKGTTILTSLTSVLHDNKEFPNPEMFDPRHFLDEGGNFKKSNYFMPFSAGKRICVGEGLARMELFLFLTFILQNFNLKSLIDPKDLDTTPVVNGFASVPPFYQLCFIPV
Hi, to clarify the labels: 1 covers activity at 10 min, 10 µM from 70% upward, 0 covers anything below 70%.

[
  {
    "molecule": "COc1c(OCCOCC(F)(F)F)ccnc1C[S+]([O-])c1nc2ccccc2[nH]1 (stereo not shown) [Example 2(2)]",
    "assigned category": 0
  },
  {
    "molecule": "COc1ccnc(C[S+]([O-])c2nc3ccc(OC(F)F)cc3[nH]2)c1OC (stereo not shown) [pantoprazole, reference compound]",
    "assigned category": 0
  },
  {
    "molecule": "[O-][S+](Cc1cc(OCCOCC(F)(F)F)ccn1)c1nc2ccccc2[nH]1 (single isomer, unassigned; (-)) [Example 13(3)]",
    "assigned category": 1
  },
  {
    "molecule": "COc1ccc2nc([S@@+]([O-])Cc3ncc(C)c(OC)c3C)[nH]c2c1 [esomeprazole, reference compound]",
    "assigned category": 0
  },
  {
    "molecule": "COCCCOc1ccnc(C[S+]([O-])c2nc3ccccc3[nH]2)c1C (stereo not shown) [rabeprazole, reference compound]",
    "assigned category": 0
  }
]

Task: Check this molecule for activity at 10 min, 10 µM at or above 70%: [O-][S+](Cc1cc(OCCCC(F)(F)F)ccn1)c1nc2ccccc2[nH]1 (stereo not shown) [Example 9(3)]
Output: 1

* * *

Parameter: pIC50. Scope: all listed entries.
target: H+/K+-ATPase (Sus scrofa, UniProt P19156); construct: The mucous membrane layer was homogenized in Tris-HCl buffer; assay: Proton pump inhibitory action: activity of inhibiting H+/K+-ATPase (at pH 1); conditions: pig gastric mucosa enzyme sample; test compounds pretreated in hydrochloric acid solution pH 1 (50% DMSO) for 15 minutes; read-out: Proton pump inhibitory action [IC50 (μmol/L)]
Sequence (P19156 2-1034 limits assumed): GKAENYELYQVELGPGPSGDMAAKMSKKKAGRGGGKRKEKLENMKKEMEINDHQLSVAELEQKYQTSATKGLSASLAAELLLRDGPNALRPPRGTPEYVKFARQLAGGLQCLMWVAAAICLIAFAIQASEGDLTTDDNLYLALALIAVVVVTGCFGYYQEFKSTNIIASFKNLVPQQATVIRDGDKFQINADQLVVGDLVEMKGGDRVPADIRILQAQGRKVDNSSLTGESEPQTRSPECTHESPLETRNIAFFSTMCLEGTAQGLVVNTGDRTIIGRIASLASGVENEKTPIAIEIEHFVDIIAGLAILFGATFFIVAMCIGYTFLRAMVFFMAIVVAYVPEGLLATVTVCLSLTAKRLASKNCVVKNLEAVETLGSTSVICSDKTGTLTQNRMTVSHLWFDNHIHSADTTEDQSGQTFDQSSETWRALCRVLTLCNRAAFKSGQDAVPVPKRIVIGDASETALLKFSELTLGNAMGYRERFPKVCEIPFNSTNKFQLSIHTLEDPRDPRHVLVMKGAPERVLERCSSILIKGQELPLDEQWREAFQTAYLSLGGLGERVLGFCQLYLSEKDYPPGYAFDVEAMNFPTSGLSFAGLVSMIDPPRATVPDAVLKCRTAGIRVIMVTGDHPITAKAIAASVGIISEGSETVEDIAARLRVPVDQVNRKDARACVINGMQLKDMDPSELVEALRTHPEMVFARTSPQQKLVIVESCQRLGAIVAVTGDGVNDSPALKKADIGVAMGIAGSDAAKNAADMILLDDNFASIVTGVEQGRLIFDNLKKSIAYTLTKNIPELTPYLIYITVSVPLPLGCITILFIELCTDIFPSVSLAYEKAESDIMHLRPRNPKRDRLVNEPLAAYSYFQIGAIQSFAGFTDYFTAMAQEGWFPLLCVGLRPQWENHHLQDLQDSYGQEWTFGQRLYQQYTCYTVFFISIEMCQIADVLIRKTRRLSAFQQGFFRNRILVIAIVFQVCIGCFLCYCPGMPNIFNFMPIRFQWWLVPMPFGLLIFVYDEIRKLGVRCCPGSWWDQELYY
Sequence (P18434 whole entry partner): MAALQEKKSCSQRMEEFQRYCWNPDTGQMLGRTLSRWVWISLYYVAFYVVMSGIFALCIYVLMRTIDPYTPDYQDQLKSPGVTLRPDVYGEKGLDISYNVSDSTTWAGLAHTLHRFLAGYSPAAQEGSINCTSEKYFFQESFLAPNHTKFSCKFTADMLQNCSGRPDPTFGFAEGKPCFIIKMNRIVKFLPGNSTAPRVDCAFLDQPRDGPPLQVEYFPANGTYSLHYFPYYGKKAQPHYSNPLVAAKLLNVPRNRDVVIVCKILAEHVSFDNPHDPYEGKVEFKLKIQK
Remember the convention: pIC50 equals -log10 of concentration in molar.

Example results:
[
  {
    "compound": "COc1c(OCCCC(F)(F)F)ccnc1C[S+]([O-])c1nc2ccccc2[nH]1 (single isomer, unassigned; (-)) [Example 6(1)]",
    "pIC50": 5.60
  },
  {
    "compound": "COc1c(OCCOCC(F)(F)F)ccnc1C[S+]([O-])c1nc2ccccc2[nH]1 (single isomer, unassigned; (+)) [Example 3(2)]",
    "pIC50": 5.39
  },
  {
    "compound": "[O-][S+](Cc1cc(OCCCC(F)(F)F)ccn1)c1nc2ccccc2[nH]1 (single isomer, unassigned; (+)) [Example 11]",
    "pIC50": 5.42
  }
]

Task: What value of pIC50 has been reported for the following compound? [O-][S+](Cc1cc(OCCOCC(F)(F)F)ccn1)c1nc2ccccc2[nH]1 (single isomer, unassigned; (+)) [Example 14]
Output: 5.18

Task: Also need COc1c(OCCCC(F)(F)F)ccnc1C[S+]([O-])c1nc2ccccc2[nH]1 (centres unmarked) [Example 1(2)] , thanks.
Output: 5.38

Task: Let us now turn to [O-][S+](Cc1cc(OCCCC(F)(F)F)ccn1)c1nc2ccccc2[nH]1 (single isomer, unassigned; (-)) [Example 10(2)]
Output: 5.52

Task: Okay, and COCCCOc1ccnc(C[S+]([O-])c2nc3ccccc3[nH]2)c1C (centres unmarked) [rabeprazole, reference compound] ?
Output: 5.79

* * *

system: gastric acid secreted under stimulation with histamine; experiment: Gastric acid secretion inhibition action, histamine-stimulated, acute Fistula method; format: in vivo, Sprague-Dawley (SD) rats; settings: SD rats, administered in the duodenum; histamine 8 mg/kg/h; total acid discharge at 3, 4 and 5 hours; Probit method
measure: Gastric-acid secretion inhibition action [ED50 (mg/kg)]
All answers are understood in mg/kg, so give the number only.

The cases that follow already have their Gastric-acid secretion inhibition action [ED50 (mg/kg)] on record.
[
  {
    "molecule": "COc1c(OCCCC(F)(F)F)ccnc1C[S+]([O-])c1nc2ccccc2[nH]1 (single isomer, unassigned; (-))",
    "measured result": 1.4
  },
  {
    "molecule": "[O-][S+](Cc1cc(OCCCC(F)(F)F)ccn1)c1nc2ccccc2[nH]1 (single isomer, unassigned; (+))",
    "measured result": 0.50
  },
  {
    "molecule": "[O-][S+](Cc1cc(OCCOCC(F)(F)F)ccn1)c1nc2ccccc2[nH]1 (single isomer, unassigned; (+))",
    "measured result": 0.42
  }
]

Lab note: next molecule to report on.
Task: Param readout = Gastric-acid secretion inhibition action [ED50 (mg/kg)]; param system = gastric acid secreted under stimulation with histamine; param query = COc1c(OCCOCC(F)(F)F)ccnc1C[S+]([O-])c1nc2ccccc2[nH]1 (single isomer, unassigned; (-)) ; response: value
Output: 2.6

* * *

biological target: CYP2C19 (Homo sapiens, UniProt P33261); construct: purchased Sumitomo Chemical Co., Ltd; host or cells: yeast (microsomes); test: Human CYP2C19 activity inhibition test (S-(+)-mephenytoin to 4'-hydroxymephenytoin); format: in vitro ADME; details: human, pH 7.4, probe S-(+)-mephenytoin (to 4'-hydroxymephenytoin), test compound 10 μM; human CYP2C19 yeast expression system microsome; 4'-hydroxymephenytoin generated vs control; read-out: CYP2C19 residual activity (%)
In this section, each of the compounds is paired with its reported activity at 10 min, 10 µM.

[
  {
    "compound": "[O-][S+](Cc1cc(OCCOCC(F)(F)F)ccn1)c1nc2ccccc2[nH]1 (stereo not drawn) [Example 12]",
    "activity at 10 min, 10 µM": "88.8%"
  },
  {
    "compound": "COc1c(OCCCC(F)(F)F)ccnc1C[S+]([O-])c1nc2ccccc2[nH]1 (single isomer, unassigned; (-)) [Example 6(1)]",
    "activity at 10 min, 10 µM": "66.4%"
  },
  {
    "compound": "COc1c(OCCOCC(F)(F)F)ccnc1C[S+]([O-])c1nc2ccccc2[nH]1 (single isomer, unassigned; (+)) [Example 3(2)]",
    "activity at 10 min, 10 µM": "98.3%"
  },
  {
    "compound": "COc1ccc2[nH]c([S+]([O-])Cc3ncc(C)c(OC)c3C)nc2c1 (stereo not drawn) [omeprazole, reference compound]",
    "activity at 10 min, 10 µM": "18.4%"
  },
  {
    "compound": "[O-][S+](Cc1cc(OCCCC(F)(F)F)ccn1)c1nc2ccccc2[nH]1 (single isomer, unassigned; (-)) [Example 10(2)]",
    "activity at 10 min, 10 µM": "89.4%"
  }
]

# ---- query compound ----
Task: activity at 10 min, 10 µM for Cc1c(OCC(F)(F)F)ccnc1C[S+]([O-])c1nc2ccccc2[nH]1 (stereo not drawn) [lansoprazole, reference compound] ?
Output: 8.7%

* * *

molecular target: H+/K+-ATPase (Sus scrofa, UniProt P19156); construct: The mucous membrane layer was homogenized in Tris-HCl buffer; assay: Proton pump inhibitory action: activity of inhibiting H+/K+-ATPase (at pH 1); conditions: pig gastric mucosa enzyme sample; test compounds pretreated in hydrochloric acid solution pH 1 (50% DMSO) for 15 minutes; read-out: Proton pump inhibitory action [IC50 (μmol/L)]
measure: pIC50
Note: pIC50 values are expressed as the negative base-10 logarithm of concentration in M.

[
  {
    "molecule": "[O-][S+](Cc1cc(OCCOCC(F)(F)F)ccn1)c1nc2ccccc2[nH]1 (single isomer, unassigned; (-)) [Example 13(3)]",
    "pIC50": 5.13
  }
]

Task: Field request: pIC50 | item: COc1c(OCCCC(F)(F)F)ccnc1C[S+]([O-])c1nc2ccccc2[nH]1 (single isomer, unassigned; (+)) [Example 5(1)]
Output: 5.48

Task: How about this molecule: COc1ccnc(C[S+]([O-])c2nc3ccc(OC(F)F)cc3[nH]2)c1OC (stereo not shown) [pantoprazole, reference compound]
Output: 5.26

Task: What about this molecule? [O-][S+](Cc1cc(OCCOCC(F)(F)F)ccn1)c1nc2ccccc2[nH]1 (stereo not shown) [Example 12]
Output: 5.10

Task: Now consider [O-][S+](Cc1cc(OCCCC(F)(F)F)ccn1)c1nc2ccccc2[nH]1 (stereo not shown) [Example 9(3)] .
Output: 5.45

Task: Now give it for COc1c(OCCOCC(F)(F)F)ccnc1C[S+]([O-])c1nc2ccccc2[nH]1 (single isomer, unassigned; (-)) [Example 4] too.
Output: 5.46

Task: Next molecule: COc1c(OCCOCC(F)(F)F)ccnc1C[S+]([O-])c1nc2ccccc2[nH]1 (stereo not shown) [Example 2(2)]
Output: 5.47

Task: Same read-out for Cc1c(OCC(F)(F)F)ccnc1C[S+]([O-])c1nc2ccccc2[nH]1 (stereo not shown) [lansoprazole, reference compound] ?
Output: 5.79

Task: Please give the result for COc1ccc2nc([S@@+]([O-])Cc3ncc(C)c(OC)c3C)[nH]c2c1 [esomeprazole, reference compound] too.
Output: 5.69

Task: Now consider COc1ccc2[nH]c([S+]([O-])Cc3ncc(C)c(OC)c3C)nc2c1 (stereo not shown) [omeprazole, reference compound] and answer again.
Output: 6.00

From: patent US6884810B2
